pKd values, listed per item
- MEASUREMENT_TARGET: Human DR5 (Homo sapiens, UniProt O14763)
- PROCEDURE_TEXT: Binding affinity of antibody to human DR5 (BIAcore, CM5 chip)
- RECORDED_CONDITIONS: equilibrium dissociation constant, Human DR5
Formally, pKd is defined as -log10 of the concentration c, with c in mol/L.

Here's what some known entries look like.
MOLECULE	pKd
DA28: humanized or deimmunized variant of parental clone D0; CDRs SEQ ID NO 1, 2, 7 / 4, 10, 13 (antibody, V domains shown) VH: AVTLDESGGGLQTPGGGLSLVCKGSGFTFSSFNMLWVRQAPGKGLEWVAGIGKSDRYTGYGSAVKGRATISRDDGQSTARLQLNNLRAEDTGTYYCVKDAGSGCGSGGWTGACIDTWGHGTEVIVSS VL: LTQPSSVSANLGGTVEITCSGGDSYAGSYYYGWYQQKAPGSAPVTVIYNNNNRPSNIPSRFSGSTSGSTATLTITGVQAEDEAVYFCGSRDSSYVGIFGAGTTLTVL	11.41
DA29: humanized or deimmunized variant of parental clone D0; CDRs SEQ ID NO 1, 2, 7 / 4, 10, 13 (antibody, V domains shown) VH: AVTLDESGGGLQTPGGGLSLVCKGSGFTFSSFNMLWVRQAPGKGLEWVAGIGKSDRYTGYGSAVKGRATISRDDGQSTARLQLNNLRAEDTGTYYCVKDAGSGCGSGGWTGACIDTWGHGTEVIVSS VL: LTQPSSVSANLGGTVEITCSGGDSYAGSYYYGWYQQKAPGSAPVTVIYNNNNRPSNIPSRFSGSTSGSTATLTITGVQAEDEATYFCGSRDSSYVGIFGAGTTLTVL	10.16

Look up and state reported pKd for DA16: humanized or deimmunized variant of parental clone D0; CDRs SEQ ID NO 1, 2, 7 / 4, 10, 16 (antibody, V domains shown) VH: EVQLVESGGGLVQPGGSLRLSCAASGFTFSSFNMLWVRQAPGKGLEWVAGIGKSDRYTGYGSAVKGRFTISRDTSKNTAYLQMNSLRAEDTAVYYCSRDAGSGCGSGGWTGACIDTWGQGTLVTVSS VL: DIQMTQSPSSLSASVGDRVTITCSGGDSYAGSYYYGWYQQKPGKAPKTLIYNNNNRPSGVPSRFSGSRSGTDFTLTISSLQPEDFATYYCGSRDSSGAGGFGQGTKVEIK
10.58
